experimental details: melting temperature; melt of duplexes
applied conditions: sodium 0.0675 M; strand 1 µM
Listing: Tm of selected substances
Give a bare numeral; the unit °C is implied.

Worked cases, answers included:
- substance: "CGACGTGCCGGATGTGCTG+CAGCACATAATGCACGTCG ((((((((...((((((((+))))))))...))))))))"
  value units: "°C"
  quantitative result: 48.6
- substance: "CGACGTGCTCAATGTGCTG+CAGCACATGTTGCACGTCG ((((((((...((((((((+))))))))...))))))))"
  value units: "°C"
  quantitative result: 50.1
- substance: "CGACGTGCATCATGTGCTG+CAGCACATTGAGCACGTCG ((((((((...((((((((+))))))))...))))))))"
  value units: "°C"
  quantitative result: 50.2

With those in mind, consider the next substance.
Exercise: For the substance CGACGTGCCCTATGTGCTG+CAGCACATAGAGCACGTCG ((((((((.((((((((((+)))))))))).)))))))) , give its measured Tm value.
Solution: 55.6
